experiment: A quantitative high throughput screen for small molecules that induce DNA re-replication in SW480 colon adenocarcinoma cells.; also: nearly all actives have a fitted effect of over 55% in size; conditions: Hoechst DNA content imaging, 48 h; series mostly up to 46.1 µM
Screen size: about 340,000 compounds; about 6,200 (1.8%) were called active. About 10% were inconclusive and are not listed. Calls follow the shape of the dose curve; as a rule, active = well fitted activation curve with a large enough effect; inconclusive = small, poorly fitted or top-dose-only effect; inactive = no such curve, though single readings can be large or run the other way. The list comes from a sample in which actives are over-represented; it also holds close analogues and randomly drawn compounds.
Permitted responses: True (active), False (inactive)

Solved entries:
- Molecule: "COC(=O)c1c(CCl)noc1C(=O)NC(C)C"
  Class: "True"
- Molecule: "Cc1ccc(NC(=O)COC(=O)C2CC2)cc1S(=O)(=O)N1CCOCC1"
  Class: "False"
- Molecule: "COCCN(C(=O)CSCc1ccc(C)cc1)c1c(N)n(CC(C)C)c(=O)[nH]c1=O"
  Class: "False"
- Molecule: "COc1ccccc1N(CC(=O)Nc1c(C)n(C)n(-c2ccccc2)c1=O)S(=O)(=O)c1ccccc1"
  Class: "False"
- Molecule: "O=C1/C(=C\\c2ccc([N+](=O)[O-])cc2)CS(=O)(=O)C/C1=C/c1ccc([N+](=O)[O-])cc1"
  Class: "True"
- Molecule: "COc1ccccc1NS(=O)(=O)c1ccc(C)c(C(=O)NNC(=O)c2csc(N3CCOCC3)n2)c1"
  Class: "False"
- Molecule: "COC(=O)Cc1c(-c2[nH]c3ccccc3c2CC(=O)OC)[nH]c2ccccc12"
  Class: "False"
- Molecule: "Cc1cccc(CC2(O)C(=O)Nc3ccccc32)n1 (centres undefined)"
  Class: "False"

**Query** Identify the outcome logged in this assay for the molecule shown: COc1cc(/C=C2/SC(=S)N(Cc3ccccc3)C2=O)cc(OC)c1O
**Result** False

**Query** Dear all, I need the recorded test outcome for COc1ccc(C2=Nn3c(nnc3-c3ccccc3OC)SC2)cc1OC1CCCC1 , thank you.
**Result** True

**Query** Field: outcome | Entry: O=C(NN=Cc1ccc([N+](=O)[O-])cc1)C1CC1
**Result** False

**Query** Hi, sorry to bother you, what did the test record for CN1C=CC=C/C1=C1\SC(=S)N(Cc2ccccc2)C1=O ?
**Result** True
